assay: NCI Yeast Anticancer Drug Screen. Data for the rad50 strain (AID 155);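 note: 0% = growth of vehicle-only cultures of the same strain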; conditions: S. cerevisiae rad50 strain growth inhibition; at 50.0 µM; hits give high values
The panel holds about 79,000 compounds, 15% with a hit somewhere; the sample as a whole holds those more often.
Recorded growth inhibition by entry
Reply numerically in %, unit not repeated.

* CCCc1ccc(N)cc1 | 3.25
* CCCCCCCCCCCC1=C(O)C(=O)C(I)=C(O)C1=O | 63.2
* CCOC(=O)C1=C(C)NC(C)=C(C(=O)OCC)C1 | 14.9

## Input I would be grateful if you could share the reported growth inhibition for `COc1ccc(CCn2cnn3c(=O)c4ccccc4nc3c2=O)cc1OC` .
## Output -24

## Input I would be grateful if you could share the reported growth inhibition for CC1CCCNC1C (stereo unspecified) .
## Output -21

## Input I would be grateful if you could share the reported growth inhibition for `O=C1c2cccc([N+](=O)[O-])c2C(=O)N1c1ncn[nH]1` .
## Output -5.9

## Input I would be grateful if you could share the reported growth inhibition for `COc1ccc(/C=N/Nc2nc3ccccc3c(=O)n2-c2ccccc2)cc1` .
## Output -56.3

###

assay: NCI Yeast Anticancer Drug Screen. Data for the bub3 strain (AID 167); conditions: S. cerevisiae bub3 mutant strain, at 50.0 µM, hits give high values
The panel holds about 79,000 compounds, 15% with a hit somewhere; the sample as a whole holds those more often.
Recorded growth inhibition by entry
Reply numerically in %, unit not repeated.

Use the examples below as a reference point.
• c1ccc2[nH]cnc2c1 = 8.7
• O=C(Nc1ccc(Cl)cc1)Nc1nnc(-c2cc([N+](=O)[O-])cc([N+](=O)[O-])c2)o1 = -32.6
• Nc1[nH][nH]c(=O)c1N=Nc1ccccc1 = 8.4
• N#CC(C(=O)C(=O)Nc1cccc(C(F)(F)F)c1)c1c(Cl)cccc1Cl (stereo not drawn) = -1.7
• COC(=O)CCC(=O)O = -2.05

## Input I would be grateful if you could share the reported growth inhibition for `Cc1cc(Br)ccc1NC1=CC(=O)C(=O)c2ccccc21` .
## Output 13.2

## Input I would be grateful if you could share the reported growth inhibition for C=CCCCC1CCCNC1=O (stereo not drawn) .
## Output 4.05

## Input I would be grateful if you could share the reported growth inhibition for COc1cc2oc3cc(=O)cc4oc(-c5ccccc5)cc(c2c2c1CCC(c1ccccc1)O2)c43 (stereo not drawn) .
## Output -8.7

## Input I would be grateful if you could share the reported growth inhibition for `c1ccc(B2O[C@H]3CCCC[C@@H]3O2)cc1` .
## Output 1.25

## Input I would be grateful if you could share the reported growth inhibition for `NC(=O)C1C=CN(Cc2ccccc2)C=C1` .
## Output 23.4

## Input I would be grateful if you could share the reported growth inhibition for `COC(=O)[C@]1(C)CCC[C@]2(C)c3ccc(C(C)=O)cc3C(=O)C[C@@H]12` .
## Output -8.5

## Input I would be grateful if you could share the reported growth inhibition for CCOC(=O)CCC(NC(=O)c1ccc([N+](=O)[O-])cc1)C(=O)OCC (stereo not drawn) .
## Output 7.7

## Input I would be grateful if you could share the reported growth inhibition for COc1cc([C@@H]2c3cc4c(cc3[C@H](OC3OC5COC(C(C)C)OC5C(O)C3O)C3COC(=O)[C@@H]32)OCO4)cc(OC)c1OC (stereo partly drawn) .
## Output 9.25

## Input I would be grateful if you could share the reported growth inhibition for `COc1cccc(-c2nc3ccccc3c(=O)[nH]2)c1OC` .
## Output 16.5

## Input I would be grateful if you could share the reported growth inhibition for `NNS(=O)(=O)c1ccc(N)cc1` .
## Output 18.8

## Input I would be grateful if you could share the reported growth inhibition for Cc1ccc(S(=O)(=O)C(c2ccccc2)C(Br)C(=O)c2ccccc2)cc1 (stereo not drawn) .
## Output 1.55

## Input I would be grateful if you could share the reported growth inhibition for COc1ccc(-c2cc(-c3ccccc3)n(C3OC(COC(C)=O)C(OC(C)=O)C(OC(C)=O)C3OC(C)=O)c(=S)c2C#N)cc1 (stereo not drawn) .
## Output 26.5

## Input I would be grateful if you could share the reported growth inhibition for `C=CCOC(=O)CC(=C)C(=O)OCC=C` .
## Output -5.65

## Input I would be grateful if you could share the reported growth inhibition for CC(C)(C)C1CCC(=NO)CC1 (stereo not drawn) .
## Output 14.3

## Input I would be grateful if you could share the reported growth inhibition for `O=C(NCCCCCCNC(=O)NCc1ccc(Cl)c(Cl)c1)NCc1ccc(Cl)c(Cl)c1` .
## Output -1.9

## Input I would be grateful if you could share the reported growth inhibition for CC(C)=NOC(C)C(=O)O (stereo not drawn) .
## Output -0.9

## Input I would be grateful if you could share the reported growth inhibition for `CC(=O)Nc1nc(C)c(CC/C=C/c2ccc([N+](=O)[O-])cc2)c(Cl)n1` .
## Output 27.2

## Input I would be grateful if you could share the reported growth inhibition for `NC(=O)/C(=C(/O)C(=O)O)c1ccnc2ccccc12` .
## Output -4.2
